- study system: Rac GTPase-activating protein 1 (Homo sapiens)
- assay remarks: blockers of MgcRacGAP-driven Rac1 GTP hydrolysis – biochemical, ADP Hunter fluorescence, primary and confirmatory, confirmation (AID 624330);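 also: fluorescence reports GDP produced by GAP-driven GTP hydrolysis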
- test context: MgcRacGAP-stimulated Rac1 GTP hydrolysis, at 30 µM, active compounds read high, GST-tagged Rac1 F28L mutant substrate
About 2,100 (0.62%) of roughly 340,000 compounds were called active. These entries were drawn from the full list. Measured potencies and affinities stand elsewhere.
assay readout: inhibition (%)
# value in %; strip the unit string

Quick one: inhibition of COc1ccccc1N1CCN(C(=O)c2cccc(N3C(=O)C4C5C=CC(C5)C4C3=O)c2)CC1 (stereo unspecified) ?
9.14

Repeat for the following compound: CCc1cccc(C)c1NC(=S)NCC1CCN(c2ccc(OC)cc2)C1 (stereo unspecified)
26.6

Repeat for the following compound: `CCOC(=O)C1=C(O)CSC1=Nc1cccc2ccccc12`
1.02

Repeat for the following compound: `CCn1c(=O)n(CC)c2cc(N3CCCC3)c(NC(=O)c3ccc(F)cc3)cc21`
17

Repeat for the following compound: `Cc1ccccc1C(=O)Nc1c2c(nc3ccccc13)CCCC2`
10.8

Repeat for the following compound: CCOc1ccc(NC(=O)C(NC(=O)C2CCC(C)CC2)C(C)C)cc1 (stereo unspecified)
8.67

Repeat for the following compound: `O=C(Nc1ccccc1Cl)Nc1ccccc1Cl`
10.3

Repeat for the following compound: `Oc1ccc(/C=N/NC2=NCCCCC2)cc1`
14.8

Repeat for the following compound: Cc1ccc(CS(=O)Cc2ccc(C(=O)N3CCN(c4ccccn4)CC3)o2)cc1 (stereo unspecified)
9.12

Repeat for the following compound: `Cn1c(=O)c2nc(SCc3ccccc3)n(C)c2n(C)c1=O`
6.08

Repeat for the following compound: `CC(=O)Nc1cc(C(F)(F)F)ccc1N1CCOCC1`
2.07

Repeat for the following compound: CCOc1ccc(NC(=O)NCC2CCN(c3ccc(OC)cc3)C2)cc1 (stereo unspecified)
5.23

Repeat for the following compound: COc1ccc(N2CCC(CNC(=O)Nc3ccc(Cl)cc3)C2)cc1 (stereo unspecified)
23.3

Repeat for the following compound: `c1ccc(NN(Cc2ccccn2)c2ccccc2)cc1`
-6.65

Repeat for the following compound: `CCN(CC)S(=O)(=O)c1ccc(N2CCN(c3ccccc3O)CC2)nc1`
5.53

Repeat for the following compound: `Nc1nc(-c2ccccc2)cn1/N=C/c1ccccc1`
3.51

Repeat for the following compound: `O=C(Cn1sc2ccccc2c1=O)Nc1ccc(Cl)cc1`
31.2

Repeat for the following compound: `CSc1nc(C)cc(OCC#N)n1`
5.78

Repeat for the following compound: O=C(O)C1C2C=CC3(CN(c4cccc(C(F)(F)F)c4)C(=O)C13)O2 (stereo unspecified)
2.13

Repeat for the following compound: `CC(=O)Nc1c(-c2ccccc2)nc2ncccn12`
16.1

Repeat for the following compound: `COc1ccc(CCNC(=O)c2ccc(N3CCCC3=O)cc2)cc1OC`
12.5

Repeat for the following compound: CCC(c1nnnn1Cc1ccc(OC)cc1)N1CCN(c2ccc(OC)cc2)CC1 (stereo unspecified)
24.3

Repeat for the following compound: `O=C(Cn1cc([N+](=O)[O-])cn1)NCc1cc2ccccc2[nH]1`
8.44

Repeat for the following compound: `Cc1nc(Nc2nc(CSc3ccc(Cl)cc3)cc(=O)[nH]2)nc2ccccc12`
4.96

Repeat for the following compound: `Nc1cc(Cl)ccc1N1CCCCC1`
1.75

Repeat for the following compound: `CCn1c(=O)n(CC(=O)Nc2ccc(F)cc2)c(=O)c2ccccc21`
12.4

Repeat for the following compound: `O=C(N/N=C/c1ccc(F)cc1)c1ccccc1`
5.65

Repeat for the following compound: `O=C(Nc1ccccc1Cl)c1ccc(C(=O)Nc2ccccc2Cl)cc1`
3.72

Repeat for the following compound: `CCn1c(=O)n(CC)c2cc(N3CCCC3)c(NC(=O)c3cccc(OC)c3)cc21`
8.3

Repeat for the following compound: `COc1ccc(-c2cnnc(N/N=C/c3ccc(O)c(OC)c3)n2)cc1`
28.9

Repeat for the following compound: `CC1CCN(c2ccc(C(F)(F)F)cc2N)CC1`
3.8

Repeat for the following compound: `C/C(=N\NC(=O)c1cccc(N/N=C(\C)c2ccccc2)c1)c1ccccc1`
0.42

Repeat for the following compound: `CCN(CC(=O)Nc1cccc(F)c1)Cc1nc2ccccc2c(=O)[nH]1`
-2.26

Repeat for the following compound: `CCOc1cc(/C=C2/C(=O)N(c3ccccc3)N=C2C)ccc1OC(=O)c1cccs1`
15.2

Repeat for the following compound: `O=C(COc1ccccc1[N+](=O)[O-])Nc1cccc(Cl)c1N1CCOCC1`
9.17

Repeat for the following compound: `O=C(N/N=C/c1ccccc1)c1ccc(-c2ccccc2)cc1`
5.75

Repeat for the following compound: COc1ccc(N2CCC(CNC(=S)Nc3c(C)cc(C)cc3C)C2)cc1 (stereo unspecified)
23.7

Repeat for the following compound: `COc1cc(/C=N/Nc2nc(C)cc(C)n2)ccc1OC(=O)c1ccco1`
12.7

Repeat for the following compound: `CNCc1c(OCc2ccccc2F)ccc2ccccc12`
-6.3

Repeat for the following compound: `NC(=O)CSc1nnc(NC(=O)c2cccc(S(=O)(=O)N3CCCCC3)c2)s1`
7.47

Repeat for the following compound: O=C(c1ccco1)N1N=C2CCCCCC2C1(O)C(F)(F)F (stereo unspecified)
1.94

Repeat for the following compound: `CCCNC(=S)NNC(=O)c1cc(-c2cccnc2)nc2ccccc12`
0.84

Repeat for the following compound: `CCOC(=O)C1=C(C)NC(C)=C(C(=O)OCC)C1c1cccc([N+](=O)[O-])c1`
10.8

Repeat for the following compound: `CC(=O)N(C(C)=O)c1nc(-c2ccccc2)cn1/N=C/c1ccccc1`
7.71

Repeat for the following compound: `CC(=O)c1cccc(NC(=O)Nc2c(C)nn(C)c2C)c1`
6.89

Repeat for the following compound: `O=C(CN1CCN(C2CCCCC2)CC1)Nc1cccc2ccccc12`
15.3
